- TEST SYSTEM: C-Met-Rluc (R. reniformis, UniProt P08581 25-1390)
- Sequence (P08581 25-1390): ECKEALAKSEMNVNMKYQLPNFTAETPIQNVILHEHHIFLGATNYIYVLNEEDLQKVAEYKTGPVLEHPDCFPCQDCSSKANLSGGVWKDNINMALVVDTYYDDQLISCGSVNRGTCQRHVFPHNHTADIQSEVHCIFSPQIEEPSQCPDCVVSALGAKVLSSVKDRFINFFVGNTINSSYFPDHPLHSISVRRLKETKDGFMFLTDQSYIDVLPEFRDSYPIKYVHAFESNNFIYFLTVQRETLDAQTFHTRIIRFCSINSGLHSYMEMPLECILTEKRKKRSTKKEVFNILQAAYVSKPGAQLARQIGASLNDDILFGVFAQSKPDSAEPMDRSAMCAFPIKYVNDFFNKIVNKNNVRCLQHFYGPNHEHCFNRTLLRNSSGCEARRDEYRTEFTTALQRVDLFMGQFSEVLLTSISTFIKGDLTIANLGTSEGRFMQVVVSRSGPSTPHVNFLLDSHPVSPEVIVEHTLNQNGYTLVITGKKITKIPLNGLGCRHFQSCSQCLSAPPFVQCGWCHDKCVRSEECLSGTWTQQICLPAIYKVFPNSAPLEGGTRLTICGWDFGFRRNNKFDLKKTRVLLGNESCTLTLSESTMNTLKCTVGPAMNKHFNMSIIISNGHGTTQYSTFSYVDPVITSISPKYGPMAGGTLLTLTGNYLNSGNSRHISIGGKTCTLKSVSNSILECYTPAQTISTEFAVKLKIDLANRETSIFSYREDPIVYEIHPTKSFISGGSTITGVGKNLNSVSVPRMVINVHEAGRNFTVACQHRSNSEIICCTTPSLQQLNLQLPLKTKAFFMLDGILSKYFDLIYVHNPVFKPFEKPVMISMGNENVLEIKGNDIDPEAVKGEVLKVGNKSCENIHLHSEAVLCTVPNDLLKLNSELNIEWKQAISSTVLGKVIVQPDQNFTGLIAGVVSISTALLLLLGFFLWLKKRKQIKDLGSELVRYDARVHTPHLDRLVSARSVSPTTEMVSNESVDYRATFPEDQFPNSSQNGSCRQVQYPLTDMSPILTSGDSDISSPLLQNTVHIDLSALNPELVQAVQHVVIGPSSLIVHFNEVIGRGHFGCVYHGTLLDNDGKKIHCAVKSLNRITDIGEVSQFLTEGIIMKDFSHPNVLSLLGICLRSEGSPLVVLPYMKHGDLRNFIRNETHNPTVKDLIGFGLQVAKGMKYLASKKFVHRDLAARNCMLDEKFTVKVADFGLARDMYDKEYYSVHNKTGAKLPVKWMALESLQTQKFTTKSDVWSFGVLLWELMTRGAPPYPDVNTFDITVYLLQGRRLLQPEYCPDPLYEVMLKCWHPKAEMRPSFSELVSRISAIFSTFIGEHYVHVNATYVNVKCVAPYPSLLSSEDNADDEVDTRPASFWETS
- PROCEDURE TEXT: cell-based or functional assay
Field: inhibition of HGF induced BRET signal, c-Met dimerization model. Provide a value for each of the binders that follow.
One number for each entry, in %.

Example entries begin here.
INSERT INTO assay_data (binder, value_reported) VALUES
  ('[224G11]chim (antibody, human IgG1, V domains shown) VH: EVQLQQSGPELVKPGASVKISCKTSGYIFTAYTMHWVRQSLGESLDWIGGIKPNNGLANYNQKFKGKATLTVDKSSSTAYMDLRSLTSEDSAVYYCARSEITTEFDYWGQGTALTVSS VL: DIVLTQSPASLAVSLGQRATISCRASESVDSYANSFMHWYQQKPGQPPKLLIYRASNLESGIPARFSGSGSRTDFTLTINPVEADDVATYYCQQSKEDPLTFGSGTKLEMKR', 28.9),
  ('murine 224G11 Mab (antibody, V domains shown) VH: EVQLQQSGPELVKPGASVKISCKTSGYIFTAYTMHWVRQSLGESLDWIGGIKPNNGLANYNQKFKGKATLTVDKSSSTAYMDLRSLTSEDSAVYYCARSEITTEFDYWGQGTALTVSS VL: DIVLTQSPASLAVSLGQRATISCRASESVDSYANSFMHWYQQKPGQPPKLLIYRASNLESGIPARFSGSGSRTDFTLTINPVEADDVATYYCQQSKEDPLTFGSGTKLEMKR', 59.4);

Next up:
stdin: For [224G11] [MH chim] (antibody, V domains shown) VH: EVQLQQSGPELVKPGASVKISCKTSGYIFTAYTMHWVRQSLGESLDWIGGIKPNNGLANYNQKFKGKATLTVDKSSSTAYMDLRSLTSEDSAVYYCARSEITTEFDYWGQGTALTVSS VL: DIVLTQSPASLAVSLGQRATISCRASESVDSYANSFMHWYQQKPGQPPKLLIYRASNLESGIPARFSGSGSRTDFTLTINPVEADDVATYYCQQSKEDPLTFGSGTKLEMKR , what is its reported inhibition of HGF induced BRET signal, c-Met dimerization model?
stdout: 61.8
